Kindly state melting point for each of the entries shown.
One number for each entry, in °C.

Observe how each entry below is paired with its result.
{"compound": "C=C1[C@@H](c2ccccc2)[C@]2(Cl)C(=O)N(C)C(=O)[C@]12Cl", "melting point / °C": 134}
{"compound": "CC(C)C(C(=O)O)c1ccccc1 (stereo unspecified)", "melting point / °C": 60}
{"compound": "NC(N)=NCCCCCCCCNCCCCCCCCN=C(N)N", "melting point / °C": 60}

The compound listed as "Nc1ccncc1Cl" shows melting point equal to 51

====

Quick rule for you: melting point under 60 °C gets y, anything else gets n.

Solved cases (5 shown):
{"molecule": "O=C(C=Nc1ccccc1)c1cc(C(=O)C=Nc2ccccc2)cc(C(=O)C=Nc2ccccc2)c1", "class-name": "n"}
{"molecule": "ClCCN(CCCl)c1ccc2ccccc2c1", "class-name": "y"}
{"molecule": "CC(C)(C)N(NC(=O)c1ccccc1)C(=O)c1ccccc1Br", "class-name": "n"}
{"molecule": "FC(F)(F)C(F)(Cl)C(Cl)(Cl)C(F)(F)F (stereo unspecified)", "class-name": "y"}
{"molecule": "CCOC(=O)C1=C(C)NC(C)=C(C(=O)OCC)C1c1ccc2c(c1)OCO2", "class-name": "n"}

Determine whether this molecule shows melting point lower than 60 °C (ties excluded): "Cc1cccc2c1/C(=N/Nc1ccc([N+](=O)[O-])cc1[N+](=O)[O-])C2"
n

Determine whether this molecule shows melting point lower than 60 °C (ties excluded): "N#Cc1ccc(S(=O)(=O)Cl)c(Cl)c1"
n

Determine whether this molecule shows melting point lower than 60 °C (ties excluded): CC1CCC2(O)C(C)(C)C3CCC2(C)C1C3 (stereo unspecified)
y

Determine whether this molecule shows melting point lower than 60 °C (ties excluded): CC(C)C(C)C(C)(C)C (stereo unspecified)
y

Determine whether this molecule shows melting point lower than 60 °C (ties excluded): OCC(O)COc1ccccc1 (stereo unspecified)
n

Determine whether this molecule shows melting point lower than 60 °C (ties excluded): "BrC(c1ccccc1)c1ccccc1"
y

Entry source: a melting point compilation (Tetko et al.)
